# EXPERIMENT SUMMARY: Intrapulmonary (ELF, AC) and plasma pharmacokinetics after multiple-dose IV relebactam with imipenem-cilastatin, bronchoscopy/BAL, noncompartmental analysis
# Type: in vivo, human (healthy subjects)
# CONDITION INFO: both sexes, human, ELF/plasma, intravenous, same regimen; 1.0 h after last dose; n=4; read-out: ELF/plasma concn GMR (90% CI)
# Experimental: Dosing and administration of imipenem-cilastatin were carried out in a manner consistent with the recommended labeled posology. […] Relebactam and imipenem levels in plasma, pulmonary ELF, and AC were measured simultaneously via acetonitrile protein precipitation and hydrophilic interaction liquid chromatography (HILIC) with detection via liquid chromatography-tandem mass spectrometry (LC-MS/MS). […]
MEASURED PARAMETER: Kp at 1 h
# answer = number (no unit)

> print(dat)
                                   compound  numeric.value
1  O=C(NC1CCNCC1)[C@@H]1CC[C@@H]2CN1C(=O)N2OS(=O)(=O)O [relebactam]           0.35

Proceeding to the next compound to report its Kp at 1 h.
Ask: Provide Kp at 1 h value for the following compound: C[C@@H](O)[C@H]1C(=O)N2C(C(=O)O)=C(SCCN=CN)C[C@H]12 [imipenem]
Reply: 0.36

----------
# EXPERIMENT SUMMARY: Intrapulmonary (ELF, AC) and plasma pharmacokinetics after multiple-dose IV relebactam with imipenem-cilastatin, bronchoscopy/BAL, noncompartmental analysis
# Format: in vivo, human (healthy subjects)
# CONDITION INFO: both sexes, human, AC/plasma, intravenous, same regimen; 1.5 h after last dose; n=4; read-out: AC/plasma concn GMR (90% CI)
MEASURED PARAMETER: Kp at 1.5 h
# answer = number (no unit)

Ask: Provide Kp at 1.5 h value for the following compound: O=C(NC1CCNCC1)[C@@H]1CC[C@@H]2CN1C(=O)N2OS(=O)(=O)O
Reply: 0.38
